Tested on: A549
assay: Cytotoxicity against human A549 cells
Format: functional, cell-based
Task for the reader: assign each of the following molecules its reported log10 of IC50.
Could you please treat all values as log10 of IC50 in µg/mL?

Input line: Quick one: log10 of IC50 for C\C1=C/CC/C(C=O)=C/CC(C)(C)/C=C/C1=N/O ?
Output line: 1.96

Input line: How about C/C1=C\CC(C)(C)/C=C/C(=N/OC(=O)c2ccccc2O)C(/C)=C/CC1 ?
Output line: 1.08

Input line: Likewise for C/C1=C\CC(C)(C)/C=C/C(=N/OC(=O)[C@H](NC(=O)OC(C)(C)C)C(C)C)C(/C)=C/CC1 ?
Output line: 0.30

Input line: Next up: CC(=O)N1C(=O)/C=C/C(C)(C)C/C=C(\C)CC/C=C/1C
Output line: 1.64

Input line: Now the same for C/C1=C\CC(C)(C)/C=C/C(=N/OC(=O)c2cccc([N+](=O)[O-])c2)C(/C)=C/CC1
Output line: 1.77
